experiment: Photophysical properties (fluorescence excitation/emission in PBS); type: physicochemical; conditions: 10 μM solution in PBS
measured.property: Photophysical Properties Excitation λmax (nm)
Write the number in nm without appending the unit.

// Input: COCCOCCOCCOCCOCCOCCOCCOCCOCCOCCOCCOCCOCCOCCOCCOCCOCCOCCOCCOCCOCCOCCOCCOCCCNc1nc(C(=O)NCCOCCOCCOCCOCCOCCOCCOCCOCCOCCOCCOCCOCCOCCOCCOCCOCCOCCOCCOCCOCCOCCOCCOCCOC)c(NCCCOCCOCCOCCOCCOCCOCCOCCOCCOCCOCCOCCOCCOCCOCCOCCOCCOCCOCCOCCOCCOCCOCCOCCOC)nc1C(=O)NCCOCCOCCOCCOCCOCCOCCOCCOCCOCCOCCOCCOCCOCCOCCOCCOCCOCCOCCOCCOCCOCCOCCOCCOC . Output its Photophysical Properties Excitation λmax only. 495
